What IC50 was measured for each of the following?
Molecular target: DNA gyrase (Escherichia coli, UniProt P0AES4+P0AES6)
Test: In vitro inhibitory concentration against DNA gyrase from Escherichia coli H560
Give bare numbers, in µM.

Would you please look over these solved cases?
>  <compound>
C[C@@H]1Cc2ccccc2-c2cc(=O)c(C(=O)O)cn21

>  <measure.unit>
µM

>  <IC50>
125

$$$$
>  <compound>
CC1Cc2cc(N3CCNCC3)c(F)cc2-c2cc(=O)c(C(=O)O)cn21 (stereo not drawn)

>  <measure.unit>
µM

>  <IC50>
83.9

$$$$

Look up IC50 with DNA gyrase (Escherichia coli, UniProt P0AES4+P0AES6) for this compound: C[C@H]1Cc2ccccc2-c2cc(=O)c(C(=O)O)cn21
78.3
